# Tested on: U251 CNS
# measurement-description: NCI-60 one-dose screen, 48 h
# condition: 10 µM unless noted
The panel holds about 83,000 compounds, 20% with a hit somewhere; the sample as a whole holds those more often. Calls of active or inactive are those of the source. How the source made its calls: active means growth percent below 10; inactive means the rest.
Outcome (select one): y (active), n (inactive)

INPUT: Recorded call for C=CCN1CCCC1=O ?
OUTPUT: n

INPUT: Queued: COc1nc2ccccc2s1
OUTPUT: n

INPUT: Would you kindly repeat that for CCCCCCCCCc1ccc(OC(C)=O)cc1 ?
OUTPUT: n

INPUT: Continue with Cc1onc(-c2c(F)cccc2Cl)c1-c1ncc(-c2ccc(Br)cc2)o1
OUTPUT: n

INPUT: Then CC(C)c1ccc(C(=O)OCCCl)cc1 ?
OUTPUT: n

INPUT: Likewise for CC(C)=CCC[C@@H](C)[C@H]1CC[C@@]2(C)C3=C(CC[C@]12C)[C@@]1(C)CC[C@H](O)C(C)(C)[C@@H]1CC3 ?
OUTPUT: n

INPUT: Please give the result for C=CCC(OC(C)=O)c1ccc(OC)c(OC)c1 (stereo not drawn) too.
OUTPUT: n

INPUT: Similarly, COc1ccc(C)cc1NC(=O)SC(C)C ?
OUTPUT: n

INPUT: Then what about the molecule c1ccc2c(NCCCN3CCN(CCCNc4c5ccccc5nc5ccccc45)CC3)c3ccccc3nc2c1 ?
OUTPUT: y

INPUT: Moving on to the next molecule: O=CNCCc1ccccc1
OUTPUT: n

INPUT: Then this molecule: OCC1OC(n2ccc3c2ncn2ncnc32)C(O)C1O (stereo not drawn)
OUTPUT: n

INPUT: Next up: CCOc1ccc(C(=O)O)cc1
OUTPUT: n

INPUT: Param item: O=S(Cc1ccccc1)/C(=C/NC(=S)Nc1ccccc1)c1ccccc1 (stereo not drawn)
OUTPUT: n
